# experimental protocol: NCI Yeast Anticancer Drug Screen. Data for the bub3 strain (AID 167)
# experimental parameters: S. cerevisiae bub3 mutant strain, at 5.0 µM (retest, dose inferred, filed as 0.5), active compounds read high
The panel holds about 79,000 compounds, 15% with a hit somewhere; the sample as a whole holds those more often.
measurement label: growth inhibition (%)
Kindly answer with a numeric value in %, unit omitted.

Below are worked cases with known answers.
**Query** Suppose we examine the compound O=[N+]([O-])c1ccccc1CC(c1c[nH]c2ccccc12)c1c[nH]c2ccccc12 ; what growth inhibition value has been reported?
**Result** -1

**Query** Suppose we examine the compound [N-]=[N+]=Nc1c([N+](=O)[O-])c(=O)n(-c2ccccc2)c2ccccc12 ; what growth inhibition value has been reported?
**Result** -21

Please examine the following record next.
**Query** Suppose we examine the compound Cc1c2c(c(C)c3c1sc1ccccc13)CCN=C2 ; what growth inhibition value has been reported?
**Result** -5

---

# experimental protocol: NCI Yeast Anticancer Drug Screen. Data for the cln2 rad14 strain (AID 165);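 also: 0% = growth equal to vehicle treated cultures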
# experimental parameters: S. cerevisiae cln2 rad14 strain, at 50.0 µM (retest, dose inferred, filed as 5.0), active compounds read high
The panel holds about 79,000 compounds, 15% with a hit somewhere; the sample as a whole holds those more often. Activity calls are given as the source filed them. Rule as the data show it: active = growth inhibition above about 70%; inactive = the rest.
// values below are reported growth inhibition

Below are worked cases with known answers.
**Query** Suppose we examine the compound CCOC(=O)c1ccc(O)c(OC)c1 ; what growth inhibition value has been reported?
**Result** 5% (inactive)

**Query** Suppose we examine the compound COC(=O)CS(=O)(=O)CCS(=O)(=O)CC(=O)OC ; what growth inhibition value has been reported?
**Result** 1% (inactive)

**Query** Suppose we examine the compound Cc1c[n+](CC(=O)c2ccc(I)cc2)c(C)s1 ; what growth inhibition value has been reported?
**Result** -5% (inactive)

**Query** Suppose we examine the compound CCOC(=O)c1c(N)sc2c1CCCCC2 ; what growth inhibition value has been reported?
**Result** -52% (inactive)

**Query** Suppose we examine the compound CCN(C(C)=O)c1cnc(/C=N/NC(N)=S)c2ccccc12 ; what growth inhibition value has been reported?
**Result** 57% (inactive)

**Query** Suppose we examine the compound N#CC12CC3=C(N=C1NC1=C(CCc4ccccc41)C2)c1ccccc1CC3 (stereo unspecified) ; what growth inhibition value has been reported?
**Result** 29% (inactive)

---
**Query** Suppose we examine the compound CCOC(=O)Cc1csc(/N=C\c2c(O)c3ccccc3oc2=O)n1 ; what growth inhibition value has been reported?
**Result** 21% (inactive)

**Query** Suppose we examine the compound CCCCCC(C)(C)N=C=S ; what growth inhibition value has been reported?
**Result** 1% (inactive)

**Query** Suppose we examine the compound COc1cc2c(cc1C(C)C)CCC1C(C)(C#N)CCCC21C (stereo unspecified) ; what growth inhibition value has been reported?
**Result** -22% (inactive)

**Query** Suppose we examine the compound CC(C)c1cc(O)c(C(C)(C)C)cc1Cl ; what growth inhibition value has been reported?
**Result** 45% (inactive)

**Query** Suppose we examine the compound Cc1ccc(S(=O)(=O)NNc2nc(N(C)C)nc(N(C)C)n2)cc1 ; what growth inhibition value has been reported?
**Result** 4% (inactive)

**Query** Suppose we examine the compound COc1ccc(CSC(=S)Nc2ccc(Cl)cc2Cl)cc1 ; what growth inhibition value has been reported?
**Result** 96% (active)

**Query** Suppose we examine the compound CCN(C(=O)C(F)(F)F)c1ccc2c(c1)C(=O)c1ccccc1-2 ; what growth inhibition value has been reported?
**Result** 20% (inactive)

**Query** Suppose we examine the compound CC(C)C1=CC23CCC4C(C)(C(=O)O)CCCC4(C)C2CC1CC3C#N (stereo unspecified) ; what growth inhibition value has been reported?
**Result** 57% (inactive)

**Query** Suppose we examine the compound O=C1C=CC(=O)N1CCCCCCN1C(=O)C=CC1=O ; what growth inhibition value has been reported?
**Result** 99% (active)

**Query** Suppose we examine the compound COC(=O)c1ccccc1NC(=S)NN(C)C ; what growth inhibition value has been reported?
**Result** 11% (inactive)

**Query** Suppose we examine the compound CN(C)c1ccc(/C=C/c2nc3ccccc3s2)cc1 ; what growth inhibition value has been reported?
**Result** 14% (inactive)

**Query** Suppose we examine the compound COc1cccc(C=Nc2ccc(I)cc2)c1O.COc1cccc(C=Nc2ccc(I)cc2)c1O.[Co] ; what growth inhibition value has been reported?
**Result** 19% (inactive)

---

# experimental protocol: NCI Yeast Anticancer Drug Screen. Data for the cln2 rad14 strain (AID 165);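 also: 0% = growth equal to vehicle treated cultures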
# experimental parameters: S. cerevisiae cln2 rad14 strain, at 50.0 µM
This is part of a sample that, as a whole, favours compounds with a hit. Of some 79,000 tested, about 15% had one in any assay. Calls of active or inactive are those of the source. Rule as the data show it: active = growth inhibition above about 70%; inactive = the rest.
Outcome field: choose from active, inactive

Example results:
**Query** Per the records of this test, what outcome belongs to CC(=O)c1c(O)c(C)c(O)c2c1OC1=CC(=O)c3c(C)noc3C12C (stereo not given) ?
**Result** inactive

**Query** Per the records of this test, what outcome belongs to C=C(Br)CN1CCC2(c3ccccc3)C(O)C([Se]c3ccccc3)CCC12 (stereo not given) ?
**Result** active

**Query** Per the records of this test, what outcome belongs to C=C1C(O)C2(O)OCC34C(CC5C(C)=CC(=O)C(O)C5(C)C23)OC(=O)C(OC(=O)C/C=C(\C)CCCCC)C14 (stereo not given) ?
**Result** active

**Query** Per the records of this test, what outcome belongs to O=[N+]([O-])c1ccc(-c2cccc(Cl)c2)c([N+](=O)[O-])c1 ?
**Result** active

Could you now consider this next compound?
**Query** Per the records of this test, what outcome belongs to O=C(Cc1nc2ccccc2s1)C(=O)Nc1ccc(Cl)cc1 ?
**Result** active

---

# experimental protocol: NCI Yeast Anticancer Drug Screen. Data for the bub3 strain (AID 167)
# experimental parameters: S. cerevisiae bub3 mutant strain, at 50.0 µM
Compounds without any hit were thinned out: in the full panel of roughly 79,000, 15% have a hit. Active and inactive are the calls of the source. No stated cut-off is given here; in the data, active means growth inhibition above about 70%; inactive means the rest. Where a SMILES comes first, the peptide text is derived from it. The star is where a group is joined. Cbz = O=C(OCc1ccccc1)*; CH2Cl = ClC*
Outcome field: choose from 1.0 = active, 0.0 = inactive

Example results:
**Query** Per the records of this test, what outcome belongs to O=C(COc1ccccc1)Oc1c(Cl)c(Cl)c(Cl)c(Cl)c1Cl ?
**Result** 1.0

**Query** Per the records of this test, what outcome belongs to C[C@H](CCC(=O)O)[C@H]1CC[C@H]2[C@@H]3CC[C@@H]4C[C@H](O)CC[C@]4(C)[C@H]3C[C@H](O)[C@]12C ?
**Result** 1.0

**Query** Per the records of this test, what outcome belongs to CC(C)CC(NC(=O)OCc1ccccc1)C(=O)NC(Cc1ccccc1)C(=O)CCl (stereo not drawn) (Cbz-Leu-Phe-CH2Cl; configuration not given here) ?
**Result** 1.0

**Query** Per the records of this test, what outcome belongs to Cc1cc2nc3ccc(N(C)C)cc3nc2cc1N ?
**Result** 1.0

**Query** Per the records of this test, what outcome belongs to Nc1ccc(-c2nc3ccccc3s2)cc1I ?
**Result** 1.0

---
**Query** Per the records of this test, what outcome belongs to O=C1NC(=S)S/C1=C\c1ccc(F)cc1 ?
**Result** 0.0

**Query** Per the records of this test, what outcome belongs to COC(=O)c1c(COC(=O)NC(C)C)c2n(c1C)CS(=O)(=O)C2 ?
**Result** 1.0

---

# experimental protocol: NCI Yeast Anticancer Drug Screen. Data for the mec2-1 strain (AID 157)
# experimental parameters: S. cerevisiae mec2-1 strain, at 5.0 µM (retest, dose inferred, filed as 0.5), active compounds read high
Compounds without any hit were thinned out: in the full panel of roughly 79,000, 15% have a hit.
// values below are reported growth inhibition
Kindly answer with a numeric value in %, unit omitted.

**Query** Suppose we examine the molecule COc1ccc(/C(Cl)=C(\C=O)c2ccc(Cl)cc2)cc1 ; what growth inhibition value has been reported?
**Result** -10

**Query** Suppose we examine the molecule CSC(=S)n1nc(-c2ccccc2)c(N=Nc2ccccc2[N+](=O)[O-])c1C ; what growth inhibition value has been reported?
**Result** -4

**Query** Suppose we examine the molecule CCC(c1ccc(OC)cc1)C(O)(CC)c1ccc(OC)cc1 (stereo unspecified) ; what growth inhibition value has been reported?
**Result** -7

**Query** Suppose we examine the molecule CN(C)c1nc(Cl)nc2c1ncn2C1OCC(O)C(O)C1O (stereo unspecified) ; what growth inhibition value has been reported?
**Result** -8

**Query** Suppose we examine the molecule Oc1cc(-[n+]2ccccc2)c(O)c2ccccc12 ; what growth inhibition value has been reported?
**Result** 9

---
**Query** Suppose we examine the molecule C=C1C(O)C2(O)OCC34C(CC5C(C)=CC(=O)C(O)C5(C)C23)OC(=O)C(OC(=O)C/C=C(\C)CCCCC)C14 (stereo unspecified) ; what growth inhibition value has been reported?
**Result** 52

**Query** Suppose we examine the molecule S=c1sc2nc(Cl)nc(Cl)c2s1 ; what growth inhibition value has been reported?
**Result** 100

**Query** Suppose we examine the molecule Cc1ccc(S(=O)(=O)NNC2Oc3cc4c(cc3C(c3ccccc3O)C2C)OCO4)cc1 (stereo unspecified) ; what growth inhibition value has been reported?
**Result** -3

**Query** Suppose we examine the molecule Nc1c(C(=O)O)cccc1[N+](=O)[O-] ; what growth inhibition value has been reported?
**Result** 1

**Query** Suppose we examine the molecule c1ccc(B2OC(c3ccccc3)C(c3ccccc3)O2)cc1 (stereo unspecified) ; what growth inhibition value has been reported?
**Result** -18

**Query** Suppose we examine the molecule CN(Cc1cc(C(C)(C)C)cc(Br)c1O)Cc1cc(C(C)(C)C)cc(Br)c1O ; what growth inhibition value has been reported?
**Result** -2

Source of measurements: PubChem BioAssay (NCI)
